Hello, the source for this data is patent US20020037903A1, in case you need it.

Please respond with reported fraction unbound for every item in the list.
Assay: Test B(b): plasma protein binding by equilibrium dialysis
Assay type: in vitro ADME
Settings: dog, canine plasma
Numbers only.

Consider the worked cases shown below.
{"columns": ["Smiles notation", "fraction unbound"],
 "data": [
  ["COc1ccccc1Oc1c(NS(=O)(=O)CCc2ccccc2)nc(-c2ncccn2)nc1OC", 0.09],
  ["COc1cc(OC)nc(O[C@H](C(=O)O)C(OC)(c2ccccc2)c2ccccc2)n1", 0.032]
]}

Please examine the following record next.
Tell me its fraction unbound given COCCOc1nc(-c2ncccn2)nc(NS(=O)(=O)CCc2ccccc2)c1Oc1ccccc1OC as the entry.
0.12
